Assay: acute toxicity in mice according to the method of Lichtfield and Wilcoxon
Conditions: mouse, in vivo, po, read-out: LD50 p.o.
Readout kind: LD50 (mg/kg)
Give bare numbers, in mg/kg.

Task: Returns the measured LD50 for the input compound. Input: Cn1c(=O)c2c(ncn2CCCN[C@H]2CO[C@H]3[C@@H]2OC[C@@H]3O[N+](=O)[O-])n(C)c1=O
Output: 1600

----------
Hi there, I'd appreciate the recorded activation at 25 µg/mL for every entry that follows.
Tested on: isolated guinea pig hearts
Test: coronary flowthrough-increasing effectiveness on isolated guinea pig hearts according to Langendorff
Conditions: Cavia porcellus; 25 μg/ml in tyrode solution, Langendorff heart; read-out: flowthrough (coronary), percentage change in comparison with the initial value
One number for each entry, in %.

Record activation at 25 µg/mL for all entries; do not skip any.
1. Cn1c(=O)c2c(ncn2CCCCCN[C@H]2CO[C@H]3[C@@H]2OC[C@@H]3O[N+](=O)[O-])n(C)c1=O
2. CN(CCCn1cnc2c1c(=O)n(C)c(=O)n2C)[C@H]1CO[C@H]2[C@@H]1OC[C@@H]2O[N+](=O)[O-]

Output:
1. 55.7
2. 40.5

Items follow; give activation at 25 µg/mL for each.
1. Cn1c(=O)c2c(ncn2CCCN[C@@H]2CO[C@H]3[C@@H]2OC[C@@H]3O[N+](=O)[O-])n(C)c1=O [Example 10c]
2. Nc1ncnc2c1ncn2CCCCN[C@H]1CO[C@H]2[C@@H]1OC[C@@H]2O[N+](=O)[O-]
3. Cn1c(=O)c2c(ncn2CCCN[C@H]2CO[C@H]3[C@@H]2OC[C@@H]3O[N+](=O)[O-])n(C)c1=O

Output:
13
47.1
56.4

Task: // query activation at 25 µg/mL value for entry Nc1ncnc2c1ncn2CCCN[C@H]1CO[C@H]2[C@@H]1OC[C@@H]2O[N+](=O)[O-]
Output: 55.8

----------
Assay: acute toxicity in mice according to the method of Lichtfield and Wilcoxon
Details: mouse, in vivo, ip, printed range (678.6-851.2), read-out: LD50 i.p.
Readout kind: LD50 (mg/kg)
Give bare numbers, in mg/kg.

Task: Record request: LD50 value, item Cn1c(=O)c2c(ncn2CCCN[C@H]2CO[C@H]3[C@@H]2OC[C@@H]3O[N+](=O)[O-])n(C)c1=O [Example 1d]
Output: 760

----------
Test: examination of acute toxicity, i.v., female NMRI-albino mice
Type: in vivo
Conditions: mouse, in vivo, iv, mice, 24 hours; read-out: Evaluated LD50-range
Give LD50 at 24 h for every item shown.

Known LD50 at 24 h results, listed for orientation:
Task: # get_value(readout='LD50 at 24 h', item= Nc1ncnc2c1ncn2CCCCCCN[C@H]1CO[C@H]2[C@@H]1OC[C@@H]2O[N+](=O)[O-] )
Output: 50 to 100 mg/kg

Task: Entry to check: Cn1c(=O)c2c(ncn2CCCCCCN[C@H]2CO[C@H]3[C@@H]2OC[C@@H]3O[N+](=O)[O-])n(C)c1=O
Output: ≥ 100 mg/kg

Task: Let us now turn to Cn1cnc2c1c(=O)n(CCCN[C@H]1CO[C@H]3[C@@H]1OC[C@@H]3O[N+](=O)[O-])c(=O)n2C
Output: > 200 mg/kg

Task: And what about the compound Cn1c(=O)c2c(ncn2CCCN[C@H]2CO[C@H]3[C@@H]2OC[C@H]3O[N+](=O)[O-])n(C)c1=O [Example 11d] ?
Output: > 200 mg/kg

Task: What do you get for Nc1ncnc2c1ncn2CCN[C@H]1CO[C@H]2[C@@H]1OC[C@@H]2O[N+](=O)[O-] ?
Output: > 200 mg/kg

Task: Okay, and Nc1ncnc2c1ncn2CCCCN[C@H]1CO[C@H]2[C@@H]1OC[C@@H]2O[N+](=O)[O-] ?
Output: < 50 mg/kg

Task: Cn1c(=O)c2c(ncn2CCCN[C@@H]2CO[C@H]3[C@@H]2OC[C@@H]3O[N+](=O)[O-])n(C)c1=O [Example 10c] , same question.
Output: > 200 mg/kg

Task: // next record Cn1c(=O)c2c(ncn2CCCN[C@@H]2CO[C@H]3[C@@H]2OC[C@H]3O[N+](=O)[O-])n(C)c1=O [Example 12d]
Output: > 200 mg/kg

Turning now to a further compound:
Task: Record request: LD50 at 24 h value, item Nc1ncnc2c1ncn2CCCCCN[C@H]1CO[C@H]2[C@@H]1OC[C@@H]2O[N+](=O)[O-]
Output: 100 to 200 mg/kg

----------
Test system: female NMRI-albino mice
Test: examination of acute toxicity, i.v., female NMRI-albino mice
Type: in vivo
Settings: 200 mg/kg i.v., within 24 hours
So I've got a bunch of compounds here, and I need their Frequency of death with an intravenous dose of 200 mg/kg values.

Task: API: value(readout=Frequency of death with an intravenous dose of 200 mg/kg, system=female NMRI-albino mice) for record Cn1c(=O)c2c(ncn2CCCN[C@H]2CO[C@H]3[C@@H]2OC[C@H]3O[N+](=O)[O-])n(C)c1=O [Example 11d]
Output: 0/6

Batch request: Frequency of death with an intravenous dose of 200 mg/kg for each of the following compounds.
1. Cn1c(=O)c2c(ncn2CCCN[C@@H]2CO[C@H]3[C@@H]2OC[C@H]3O[N+](=O)[O-])n(C)c1=O [Example 12d]
2. Nc1ncnc2c1ncn2CCCCCN[C@H]1CO[C@H]2[C@@H]1OC[C@@H]2O[N+](=O)[O-] [Example 16]
3. Cn1c(=O)c2c(ncn2CCCCCCN[C@H]2CO[C@H]3[C@@H]2OC[C@@H]3O[N+](=O)[O-])n(C)c1=O [Example 5]
4. Cn1cnc2c1c(=O)n(CCCN[C@H]1CO[C@H]3[C@@H]1OC[C@@H]3O[N+](=O)[O-])c(=O)n2C [Example 7c]

Output:
["0/6", "10/10", "10/10", "0/6"]

Task: Look up Frequency of death with an intravenous dose of 200 mg/kg with female NMRI-albino mice for this compound: Cn1c(=O)c2c(ncn2CCCN[C@@H]2CO[C@H]3[C@@H]2OC[C@@H]3O[N+](=O)[O-])n(C)c1=O [Example 10c]
Output: 0/6

----------
Tested on: isolated guinea pig hearts
Test: coronary flowthrough-increasing effectiveness on isolated guinea pig hearts according to Langendorff
Settings: Cavia porcellus; 25 μg/ml in tyrode solution, Langendorff heart; read-out: flowthrough (coronary), percentage change in comparison with the initial value
Please go through the items and note down their activation at 25 µg/mL.
One number for each entry, in %.

Task: Look up activation at 25 µg/mL for this molecule: Cn1c(=O)c2c(ncn2CCCCCCN[C@H]2CO[C@H]3[C@@H]2OC[C@@H]3O[N+](=O)[O-])n(C)c1=O [Example 5]
Output: 61.9

Task: Can you check Cn1cnc2c1c(=O)n(CCCN[C@H]1CO[C@H]3[C@@H]1OC[C@@H]3O[N+](=O)[O-])c(=O)n2C [Example 7c] next?
Output: 28.9

Task: One more molecule: Cn1c(=O)c2c(ncn2CC(O)CN[C@H]2CO[C@H]3[C@@H]2OC[C@@H]3O[N+](=O)[O-])n(C)c1=O (stereo partly shown) [Example 6]
Output: 53.3

New cases:
Task: # input molecule: Nc1ncnc2c1ncn2CCCCCCN[C@H]1CO[C@H]2[C@@H]1OC[C@@H]2O[N+](=O)[O-] [Example 17] ; wanted: its activation at 25 µg/mL
Output: 60.6

----------
Test system: female NMRI-albino mice
Assay: examination of acute toxicity, i.v., female NMRI-albino mice
Assay type: in vivo
Details: 200 mg/kg i.v., within 24 hours
Readout kind: Frequency of death with an intravenous dose of 200 mg/kg

Task: Request the reported Frequency of death with an intravenous dose of 200 mg/kg associated with Nc1ncnc2c1ncn2CCCCCCN[C@H]1CO[C@H]2[C@@H]1OC[C@@H]2O[N+](=O)[O-]
Output: 3/3

Task: What do you have for Cn1c(=O)c2c(ncn2CCCCCN[C@H]2CO[C@H]3[C@@H]2OC[C@@H]3O[N+](=O)[O-])n(C)c1=O ?
Output: 10/10

Task: Please answer likewise for Cn1c(=O)c2c(ncn2CCCCN[C@H]2CO[C@H]3[C@@H]2OC[C@@H]3O[N+](=O)[O-])n(C)c1=O
Output: 0/6

Task: Again, but for Nc1ncnc2c1ncn2CCCCN[C@H]1CO[C@H]2[C@@H]1OC[C@@H]2O[N+](=O)[O-]
Output: 3/3

Task: // same read-out, input: CC(C)Cn1c(=O)n(C)c(=O)c2c1ncn2CCCN[C@H]1CO[C@H]2[C@@H]1OC[C@@H]2O[N+](=O)[O-]
Output: 11/13

Please report Frequency of death with an intravenous dose of 200 mg/kg for every entry that follows.
1. Cn1c(=O)c2c(ncn2CCN[C@H]2CO[C@H]3[C@@H]2OC[C@@H]3O[N+](=O)[O-])n(C)c1=O
2. Nc1ncnc2c1ncn2CCN[C@H]1CO[C@H]2[C@@H]1OC[C@@H]2O[N+](=O)[O-]

Output:
1. 1/3
2. 0/6
